# experiment: Permeability of the compound by PAMPA
# Format: physicochemical
# condition-info: read-out: permeability
endpoint-label: Papp (×10⁻⁶ cm/s)
# value in ×10⁻⁶ cm/s; strip the unit string

Dear colleague, I am looking for the recorded Papp of the following compound: `Cc1cc(C)cc(NC(=O)COc2ccnc3ccccc23)c1`
46

Check `Cc1cc(C)cc(NC(=O)Cn2ccc(=O)c3ccc(Cl)cc32)c1` too.
26

Check `COc1ccc2nc(C)n(CC(=O)Nc3cc(C)cc(C)c3)c(=O)c2c1` too.
58

Check `Cc1cc(C)cc(NC(=O)Cn2cnc3ccccc3c2=O)c1` too.
60

Check `COc1ccc2nc(C)cc(OCC(=O)Nc3cc(C)cc(C)c3)c2n1` too.
51

Check `COc1ccc2c(c1)c(=O)ccn2CC(=O)Nc1cc(C)cc(C)c1` too.
19

Check `COc1ccc2nccc(OCC(=O)Nc3cc(C)cc(C)c3)c2c1` too.
28

Check `Cc1cc(C)cc(NC(=O)Cn2ccc(=O)c3ccccc32)c1` too.
45

Check `COc1ccc2nc(C)nc(OCC(=O)Nc3cc(C)cc(C)c3)c2c1` too.
37

----------
# experiment: Kinetic aqueous solubility of the compound by chemiluminescent nitrogen detection assay
# Format: physicochemical
# condition-info: read-out: Kinetic_solubility
endpoint-label: solubility kinetic (µM)
# value in µM; strip the unit string

Dear colleague, I am looking for the recorded solubility kinetic of the following molecule: `Cc1cc(C)cc(NC(=O)Cn2cnc3ccccc3c2=O)c1`
20

Check `Cc1cc(C)cc(NC(=O)Cn2ccc(=O)c3ccc(Cl)cc32)c1` too.
86

Check `COc1ccc2nccc(OCC(=O)Nc3cc(C)cc(C)c3)c2c1` too.
51

Check `Cc1cc(C)cc(NC(=O)COc2ccnc3ccccc23)c1` too.
59

Check `COc1ccc2nc(C)nc(OCC(=O)Nc3cc(C)cc(C)c3)c2c1` too.
3

Check `COc1ccc2ncn(CC(=O)Nc3cc(C)cc(C)c3)c(=O)c2c1` too.
8

Check `COc1ccc2nc(C)cc(OCC(=O)Nc3cc(C)cc(C)c3)c2n1` too.
19

Check `COc1ccc2nc(C)n(CC(=O)Nc3cc(C)cc(C)c3)c(=O)c2c1` too.
74

Check `Cc1cc(C)cc(NC(=O)Cn2ccc(=O)c3ccccc32)c1` too.
34

Check `COc1ccc2c(c1)c(=O)ccn2CC(=O)Nc1cc(C)cc(C)c1` too.
30

----------
# experiment: Lipophilicity, log D of the compound at pH 7.4 by chromatographic method
# Type: physicochemical
# condition-info: buffer
Could you please classify the records by chromatographic logD using these ranges: lowest = under 4, middle = from 4 up to 5, highest = 5 and over

# bin label for `COc1ccc2nccc(OCC(=O)Nc3cc(C)cc(C)c3)c2c1`
highest

Check `COc1ccc2nc(C)cc(OCC(=O)Nc3cc(C)cc(C)c3)c2n1` too.
highest

Check `COc1ccc2nc(C)nc(OCC(=O)Nc3cc(C)cc(C)c3)c2c1` too.
highest

Check `COc1ccc2nc(C)n(CC(=O)Nc3cc(C)cc(C)c3)c(=O)c2c1` too.
middle

Check `COc1ccc2ncn(CC(=O)Nc3cc(C)cc(C)c3)c(=O)c2c1` too.
middle

Check `Cc1cc(C)cc(NC(=O)Cn2cnc3ccccc3c2=O)c1` too.
middle

Check `Cc1cc(C)cc(NC(=O)Cn2ccc(=O)c3ccc(Cl)cc32)c1` too.
middle

Check `Cc1cc(C)cc(NC(=O)Cn2ccc(=O)c3ccccc32)c1` too.
lowest

Check `COc1ccc2c(c1)c(=O)ccn2CC(=O)Nc1cc(C)cc(C)c1` too.
lowest
